The origin of these recorded values is ChEMBL document CHEMBL1153488.

# ASSAYED TARGET: Muscarinic acetylcholine receptor M2 (Homo sapiens, UniProt P08172)
# Sequence (P08172 whole entry): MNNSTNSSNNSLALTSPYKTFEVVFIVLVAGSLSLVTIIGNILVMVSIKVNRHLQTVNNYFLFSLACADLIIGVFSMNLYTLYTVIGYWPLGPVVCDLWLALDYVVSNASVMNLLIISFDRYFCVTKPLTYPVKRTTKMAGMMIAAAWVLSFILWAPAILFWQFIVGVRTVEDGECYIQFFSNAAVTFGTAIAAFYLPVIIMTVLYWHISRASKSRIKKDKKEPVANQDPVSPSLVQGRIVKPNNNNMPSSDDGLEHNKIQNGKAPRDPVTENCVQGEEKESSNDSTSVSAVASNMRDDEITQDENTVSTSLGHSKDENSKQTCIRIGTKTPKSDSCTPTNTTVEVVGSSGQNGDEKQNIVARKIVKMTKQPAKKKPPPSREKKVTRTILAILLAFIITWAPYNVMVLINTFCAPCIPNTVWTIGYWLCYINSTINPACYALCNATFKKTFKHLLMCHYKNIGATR
# METHOD DESCRIPTION: Antagonist activity against human cloned muscarinic M2 receptor expressed in CHO cells assessed as inhibition of acetylcholine-induced calcium mobilization by FLIPR
pIC50: −log10 of the molar value.
Label Condition met when pIC50 >= 6; otherwise Condition not met.

Here's what some known entries look like.
* CN1[C@@H]2CC[C@H]1C[C@@H](CC(CNS(C)(=O)=O)(c1ccccc1)c1ccccc1)C2 | Condition not met
* CN1[C@@H]2CC[C@H]1C[C@@H](CC(C(=O)NCc1ccccc1)(c1ccccc1)c1ccccc1)C2 | Condition met
* C[N+]1(C)[C@@H]2CC[C@H]1C[C@@H](CC(O)(c1ccccc1)c1ccccc1)C2.[Br-] | Condition met

Evaluate CN1[C@@H]2CC[C@H]1C[C@@H](CC(C(=O)O)(c1ccccc1)c1ccccc1)C2 : pIC50 at minimum 6?
Condition met

Evaluate CCNC(=O)NCC(C[C@H]1C[C@H]2CC[C@@H](C1)N2C)(c1ccccc1)c1ccccc1 : pIC50 at minimum 6?
Condition not met

Evaluate C[N+]1(C)[C@@H]2CC[C@H]1C[C@@H](CC(CO)(c1ccccc1)c1ccccc1)C2.[Br-] : pIC50 at minimum 6?
Condition met

----------
# ASSAYED TARGET: UniProt P08172
# METHOD DESCRIPTION: Antagonist activity against human cloned muscarinic M2 receptor expressed in CHO cells assessed as inhibition of acetylcholine-induced calcium mobilization by FLIPR
TEST READOUT: pIC50
// scale note: pIC50 = -log10(conc_M); give the bare number

• CC(=O)NCC(C[C@H]1C[C@H]2CC[C@@H](C1)N2C)(c1ccccc1)c1ccccc1 = 5.46
• CN1[C@@H]2CC[C@H]1C[C@@H](CC(CNC(N)=O)(c1ccccc1)c1ccccc1)C2 = 5.27
• CN1[C@@H]2CC[C@H]1C[C@@H](CC(CNS(=O)(=O)c1ccccc1)(c1ccccc1)c1ccccc1)C2 = 6.34

Shifting focus to the compound that follows.
# return recorded pIC50 for input CN1[C@@H]2CC[C@H]1C[C@@H](CC(CNC(=O)NCc1ccccc1)(c1ccccc1)c1ccccc1)C2
5.90

----------
# ASSAYED TARGET: Muscarinic acetylcholine receptor M2 (Homo sapiens)
# METHOD DESCRIPTION: Agonist activity at human cloned muscarinic M2 receptor expressed in CHO cells assessed as effect on calcium mobilization by FLIPR
# Format: functional, cell-based
The source made the active and inactive calls. The rule behind the calls is not given here.
TEST READOUT: Activity

Example entries and their recorded answers appear below.
- CN1[C@@H]2CC[C@H]1C[C@@H](CC(C(=O)O)(c1ccccc1)c1ccccc1)C2: inactive
- CN1[C@@H]2CC[C@H]1C[C@@H](CC(C(=O)NCc1ccccc1)(c1ccccc1)c1ccccc1)C2: inactive
- CN1[C@@H]2CC[C@H]1C[C@@H](CC(CNS(=O)(=O)c1ccccc1)(c1ccccc1)c1ccccc1)C2: inactive
- C[N+]1(C)[C@@H]2CC[C@H]1C[C@@H](CC(CO)(c1ccccc1)c1ccccc1)C2.[Br-]: inactive

Give Activity only, for CN1[C@@H]2CC[C@H]1C[C@@H](CC(O)(c1ccccc1)c1ccccc1)C2 , using Muscarinic acetylcholine receptor M2 (Homo sapiens) data.
inactive

Give Activity only, for CN1[C@@H]2CC[C@H]1C[C@@H](CC(CO)(c1ccccc1)c1ccccc1)C2 , using Muscarinic acetylcholine receptor M2 (Homo sapiens) data.
inactive

Give Activity only, for CN1[C@@H]2CC[C@H]1C[C@@H](CC(c1ccccc1)(c1ccccc1)c1ccccc1)C2 , using Muscarinic acetylcholine receptor M2 (Homo sapiens) data.
inactive

----------
Kb: recorded values
# ASSAYED TARGET: Muscarinic acetylcholine receptor M3 (Homo sapiens)
# Sequence (P20309 whole entry): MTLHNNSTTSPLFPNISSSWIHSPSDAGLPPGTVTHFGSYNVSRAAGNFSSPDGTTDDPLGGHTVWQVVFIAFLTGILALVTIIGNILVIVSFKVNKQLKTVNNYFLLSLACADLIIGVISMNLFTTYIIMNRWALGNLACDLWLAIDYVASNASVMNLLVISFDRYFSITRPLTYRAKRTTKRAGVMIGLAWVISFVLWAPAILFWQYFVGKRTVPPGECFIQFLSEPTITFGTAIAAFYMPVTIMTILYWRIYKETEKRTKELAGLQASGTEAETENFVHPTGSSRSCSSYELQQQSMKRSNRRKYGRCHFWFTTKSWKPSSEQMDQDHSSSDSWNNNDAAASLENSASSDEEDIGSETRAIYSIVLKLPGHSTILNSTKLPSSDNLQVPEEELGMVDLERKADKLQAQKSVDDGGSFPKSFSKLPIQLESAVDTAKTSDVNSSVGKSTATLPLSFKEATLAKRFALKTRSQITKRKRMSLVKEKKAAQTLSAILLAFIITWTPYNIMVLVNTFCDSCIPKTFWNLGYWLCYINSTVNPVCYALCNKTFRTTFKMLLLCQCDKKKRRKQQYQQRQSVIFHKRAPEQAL
# METHOD DESCRIPTION: Antagonist activity against human cloned muscarinic M3 receptor expressed in CHO cells assessed as inhibition of acetylcholine-induced calcium mobilization by measuring ratio of acetylcholine EC50 in presence and absence of compound by FLIPR assay
# Type: functional, cell-based
# ASSAY CONTEXT: read-out: pA2 (converted)

* C[N+]1(C)[C@@H]2CC[C@H]1C[C@@H](CC(C#N)(c1ccccc1)c1ccccc1)C2.[Br-] | 0.02 nM
* CN1[C@@H]2CC[C@H]1C[C@@H](CC(CO)(c1ccccc1)c1ccccc1)C2 | 3.98 nM
* CN1[C@@H]2CC[C@H]1C[C@@H](CC(O)(c1ccccc1)c1ccccc1)C2 | 2.51 nM

Give Kb only, for C[N+]1(C)[C@@H]2CC[C@H]1C[C@@H](CC(CO)(c1ccccc1)c1ccccc1)C2.[Br-] , using Muscarinic acetylcholine receptor M3 (Homo sapiens) data.
3.16 nM

Give Kb only, for CN1[C@@H]2CC[C@H]1C[C@@H](CC(C#N)(c1ccccc1)c1ccccc1)C2 , using Muscarinic acetylcholine receptor M3 (Homo sapiens) data.
0.0631 nM

Give Kb only, for C[N+]1(C)[C@@H]2CC[C@H]1C[C@@H](CC(O)(c1ccccc1)c1ccccc1)C2.[Br-] , using Muscarinic acetylcholine receptor M3 (Homo sapiens) data.
0.501 nM

----------
IC50: recorded values
# ASSAYED TARGET: Muscarinic acetylcholine receptor M3 (Homo sapiens)
# METHOD DESCRIPTION: Antagonist activity against human cloned muscarinic M3 receptor expressed in CHO cells assessed as inhibition of acetylcholine-induced calcium mobilization by FLIPR
Numbers only here, please. The scale is µM.

Example entries and their recorded answers appear below.
- CN1[C@@H]2CC[C@H]1C[C@@H](CC(CNC(=O)NCc1ccccc1)(c1ccccc1)c1ccccc1)C2: 1.34
- CN1[C@@H]2CC[C@H]1C[C@@H](CC(CNC(N)=O)(c1ccccc1)c1ccccc1)C2: 6.4
- CN1[C@@H]2CC[C@H]1C[C@@H](CC(C(=O)NCc1ccccc1)(c1ccccc1)c1ccccc1)C2: 0.839
- CN1[C@@H]2CC[C@H]1C[C@@H](CC(C(=O)O)(c1ccccc1)c1ccccc1)C2: 0.687

# return recorded IC50 for input CN1[C@@H]2CC[C@H]1C[C@@H](CC(CNS(=O)(=O)c1ccccc1)(c1ccccc1)c1ccccc1)C2
1.06

# return recorded IC50 for input CN1[C@@H]2CC[C@H]1C[C@@H](CC(CNS(C)(=O)=O)(c1ccccc1)c1ccccc1)C2
2.73

----------
# ASSAYED TARGET: UniProtKB P20309
# METHOD DESCRIPTION: Antagonist activity against human cloned muscarinic M3 receptor expressed in CHO cells assessed as inhibition of acetylcholine-induced calcium mobilization by FLIPR
pIC50: recorded values
// scale note: pIC50 = -log10(conc_M); give the bare number

Example entries and their recorded answers appear below.
- CN1[C@@H]2CC[C@H]1C[C@@H](CC(c1ccccc1)(c1ccccc1)c1ccccc1)C2: 6.69
- CC(=O)NCC(C[C@H]1C[C@H]2CC[C@@H](C1)N2C)(c1ccccc1)c1ccccc1: 5.54

Give pIC50 only, for CCNC(=O)NCC(C[C@H]1C[C@H]2CC[C@@H](C1)N2C)(c1ccccc1)c1ccccc1 , using UniProtKB P20309 data.
5.71

----------
# ASSAYED TARGET: Muscarinic acetylcholine receptor M2 (Homo sapiens)
# Sequence (P08172 whole entry): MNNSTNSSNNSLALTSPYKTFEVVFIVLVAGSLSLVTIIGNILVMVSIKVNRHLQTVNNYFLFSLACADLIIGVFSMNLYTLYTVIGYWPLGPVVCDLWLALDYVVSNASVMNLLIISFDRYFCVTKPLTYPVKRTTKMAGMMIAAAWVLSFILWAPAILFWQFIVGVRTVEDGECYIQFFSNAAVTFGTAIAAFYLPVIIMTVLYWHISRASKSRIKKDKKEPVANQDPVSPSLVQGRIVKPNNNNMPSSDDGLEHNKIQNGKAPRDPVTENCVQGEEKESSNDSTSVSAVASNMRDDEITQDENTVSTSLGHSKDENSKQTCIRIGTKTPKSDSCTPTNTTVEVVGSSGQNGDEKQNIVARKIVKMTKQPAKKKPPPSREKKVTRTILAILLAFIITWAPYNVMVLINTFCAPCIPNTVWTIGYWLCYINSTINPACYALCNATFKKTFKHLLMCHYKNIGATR
Ki: recorded values
Numbers only here, please. The scale is nM.

# return recorded Ki for input C[N+]1(C)[C@@H]2CC[C@H]1C[C@@H](CC(C#N)(c1ccccc1)c1ccccc1)C2.[Br-]
0.158
